- Tested on: NCI-H23 lung
- assay-overview: NCI tumour cell line growth inhibition, 48 h
parameter: TGI

Entry O=C(OCc1ccc([N+](=O)[O-])cc1)N1c2ccccc2[C@@]23O[C@]24CCC[C@H]3C#C/C=C\C#C[C@H]14 needs its TGI filled in; supply it.
> 100 µM

Entry COC(=O)[C@H](Cc1c[nH]c2ccccc12)NP(=O)(O)OC[C@H]1O[C@@H](n2cc(C)c(=O)[nH]c2=O)C[C@@H]1N=[N+]=[N-] needs its TGI filled in; supply it.
> 100 µM

Entry C=C1C(=O)O[C@H]2C[C@@H]1CC/C(C)=C/CC/C(C)=C/CC[C@@]2(C)O needs its TGI filled in; supply it.
> 100 µM

Entry CC[C@@H](C(=O)[C@H](C)[C@H](O)[C@@H](C)[C@H]1O[C@H]([C@@H](CC)C(=O)N(CC)CC)CC[C@H]1C)C1O[C@]2(C=C[C@@H](O)[C@]3(CC[C@@](C)([C@H]4CC[C@](O)(CC)[C@H](C)O4)O3)O2)[C@H](C)C[C@@H]1C (stereo partly drawn) needs its TGI filled in; supply it.
8.94 µM

Entry C#CCN(Cc1nc2cc(C(F)(F)F)ccc2nc1-c1ccccc1)c1ccc(C)cc1 needs its TGI filled in; supply it.
> 34.7 µM

Entry Cn1cc(C2=C(c3c4n(c5ccccc35)CCC(CN)C4)C(=O)NC2=O)c2ccccc21 (stereo not drawn) needs its TGI filled in; supply it.
7.74 µM

Entry O=C(O)c1cc2c(cc1CC(Cc1ccc3c(c1)CCCC3)C(=O)O)CCCC2 (stereo not drawn) needs its TGI filled in; supply it.
> 100 µM

Entry O=c1c2ccccc2nc(/C=C(\O)c2ccncc2)n1-c1ccc(Cl)cc1 needs its TGI filled in; supply it.
> 100 µM

Entry Nc1nc(Cl)cc(NCC(O)CO)n1 (stereo not drawn) needs its TGI filled in; supply it.
> 100 µM

Entry COc1ccc(Nc2cc(C)nc(NCc3ccccc3)n2)cc1 needs its TGI filled in; supply it.
16.3 µM

Entry COCCNc1ccc2c3c(cccc13)C(=O)N(CCN(C)C)C2=O needs its TGI filled in; supply it.
> 25 µM

Entry O=C1CC2(CCC3=C(O2)c2ccccc2NC(=O)C3)C(=O)c2ccccc2N1 (stereo not drawn) needs its TGI filled in; supply it.
> 100 µM

Entry [Cl][Hg][c]1ccc(Cl)s1 needs its TGI filled in; supply it.
8.05 µM

Entry C=CCN1C[C@H](C)N([C@@H](c2ccc(C(=O)N3CCCCC3)cc2)c2cccc(OC)c2)C[C@H]1C needs its TGI filled in; supply it.
> 100 µM

Entry COC(=O)C1=C(OC(=O)c2ccccc2)C(C(=O)OC)[C@@]2(O)[C@@H](C(=O)OC)[C@H](C)C[C@@H]1[C@@H]2C(=O)OC (stereo partly drawn) needs its TGI filled in; supply it.
> 100 µM

Entry COC(=O)c1ccccc1CC(Cc1ccc2c(c1)CCC2)C(=O)OC (stereo not drawn) needs its TGI filled in; supply it.
> 100 µM

Entry CO[C@H]1C[C@H](O[C@H]2CC[C@]3(C=O)[C@H]4CC[C@]5(C)[C@@H](C6=CC(=O)OC6)CC[C@]5(O)[C@@H]4CC[C@]3(O)C2)O[C@H](C)[C@H]1O[C@@H]1O[C@H](CO)[C@@H](O)[C@H](O)[C@H]1O needs its TGI filled in; supply it.
2.88e-05 µM

Entry COc1cc(/C(=C2/O[C@@H]([C@H]3COC(C)(C)O3)[C@H]3OC(C)(C)O[C@@H]23)c2ccc3ccccc3c2)cc(OC)c1OC needs its TGI filled in; supply it.
> 100 µM

Entry CCCn1cc2c(SC)nc(SC)nc2n1 needs its TGI filled in; supply it.
> 100 µM

Entry N=C(N)SCc1c2ccccc2c(CSC(=N)N)c2ccccc12 needs its TGI filled in; supply it.
20.5 µM

Entry COc1ccc2cc(C(=O)/C=C/c3ccc(N(C)C)cc3)ccc2c1 needs its TGI filled in; supply it.
> 100 µM

Entry Cc1ccc(C(=O)Cn2c(C(=O)/C=C/c3cccs3)nc3ccccc32)cc1 needs its TGI filled in; supply it.
> 100 µM

Entry CCCCCCCCCCCC(=O)N1CCN(C(C)=O)CC1 needs its TGI filled in; supply it.
40.8 µM
